tested on: SF-268 CNS; test: NCI tumour cell line growth inhibition, 48 h
Listed next: entries and their corresponding TGI.

- molecule: "COc1c(CC=C(C)C)c(O)c(C(CC(C)C)c2c(O)c(C(C)=O)c(O)c3c2OC(C(C)(C)O)C3)c(O)c1C(C)=O (stereo not given)"
  TGI: "> 12.5 µM"
- molecule: "CCN(CC)C(=S)SS(=O)(=O)c1ccccc1C(=O)O"
  TGI: "> 100 µM"
- molecule: "CCCN1C(=O)C/C(=C\\C(C)=O)Nc2ccccc21"
  TGI: "> 100 µM"
- molecule: "CNc1ccccc1C(=O)N/N=C/C=C/c1ccccc1"
  TGI: "> 100 µM"
- molecule: "O=C(O)c1ccc(S(=O)(=O)c2ccccc2)c([N+](=O)[O-])c1"
  TGI: "> 100 µM"
